src = patent US20180002415A1

- system.name: T1, 161-340
- T1 construct: Expressed in E. coli
- T1 GST fusion polypeptide: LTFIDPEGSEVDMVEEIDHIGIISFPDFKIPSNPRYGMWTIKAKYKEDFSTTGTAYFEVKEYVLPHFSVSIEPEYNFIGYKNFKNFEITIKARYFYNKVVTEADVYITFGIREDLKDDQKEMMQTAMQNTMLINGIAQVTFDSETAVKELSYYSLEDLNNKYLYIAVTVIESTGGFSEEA
- assay.method.text: Western blot of E. coli lysates expressing GST-fused C5 beta-chain fragments

- binder: "CFA0675 (antibody, V domains shown, Chimeric, rabbit V regions; also called CFA0675-F760G4) VH: QSVEESGGRLVTPGTPLTLTCTVSGFSLSTYAMGWVRQAPGKGLEWIGTIDTGDNSFYANWAKGRFTISRTSTTVDLKITSPTAEDTATYFCARNDGSVYNLFNLWGPGTLVTVSS VL: DVVMTQTPASVSAAVGGTVTIKCQASENIYSALSWYQQKPGLRPRLLIYYASTLASGVPSRFKGSRSGTEFTLTISDLECADAASYYCQQYYDINSVDNTFGGGTKVVVE"
  binding result: "no binding"
- binder: "CFA0538 (antibody, V domains shown, Chimeric, rabbit V regions; also called CFA0538-F760G4) VH: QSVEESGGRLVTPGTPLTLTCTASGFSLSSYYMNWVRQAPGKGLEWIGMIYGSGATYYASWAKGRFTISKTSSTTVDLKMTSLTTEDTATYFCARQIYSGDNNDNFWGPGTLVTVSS VL: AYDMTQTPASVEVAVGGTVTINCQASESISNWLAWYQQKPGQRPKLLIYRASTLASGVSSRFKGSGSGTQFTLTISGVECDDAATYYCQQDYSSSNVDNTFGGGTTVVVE"
  binding result: "no binding"
- binder: "CFA0599 (antibody, V domains shown, Chimeric, rabbit V regions; also called CFA0599-F760G4) VH: QSVEESGGRLVTPGTPLTLTCTVSGLSLSDNTMTWVRQAPGKGLEWIGIISFGGDAYYASWAKGRFPISKTSTTVDLRITSPTTEDTATYFCARVGAGNIFWYFDLWGPGTLVTVSS VL: AYDMTQTPASVEVSVGGTVTIKCQASESIYSALAWYQQKPGQPPKLLIYSASTLASGVPSRFKGSGSGTEYTLTISDLECADAATYYCQQYYSSTNVHNSFGGGTTVVVE"
  binding result: "no binding"
